molecular target: Cytochrome P450 2C19 (Homo sapiens); assay: Cytochrome P450 Family 2 Subfamily C Member 19 (CYP2C19) small molecule antagonists: luciferase reporter qHTS assay (AID 1671197); conditions: P450-Glo CYP2C19 enzyme, luciferin luminescence, 1 h; series mostly up to 52.9 µM; further: nearly all actives have a fitted effect of over 65% in size; further: potency means the concentration at half of the fitted maximal effect
Inconclusive results are not listed. The source made the active and inactive calls. The call rests on the fitted dose curve; in most records, active means well fitted inhibition curve with a large enough effect in the repeat runs; inconclusive means weak or mixed curves; inactive means no such curve, though single readings can be large or run the other way.
MEASUREMENT_TYPE: Potency

| MOLECULE | Potency |
| --- | --- |
| CCCc1ncc(C[n+]2ccccc2C)c(N)n1 | inactive |
| OCCCCCO | inactive |
| C=C(C)C(=O)OCC(O)CO (stereo not given) | inactive |
| CC(=O)c1ccc2ccccc2c1 | 28.3 µM (active) |

query: I have this molecule here, "CCCn1cc[n+](C)c1C" , and I need its recorded Potency.
result: inactive

query: Try "CCOc1ccc2nc(S(N)(=O)=O)sc2c1" next.
result: inactive

query: And for "CCO[Si](OCC)(OCC)c1ccccc1" ?
result: inactive

query: "C=C[Si](OC(C)=O)(OC(C)=O)OC(C)=O" , same question.
result: inactive

query: And the next one, "CC(C)COC(=O)c1ccc(N)cc1" ?
result: 21.9 µM (active)

query: Moving on to CCC1C(=O)OCC1Cc1cncn1C (stereo not given)
result: inactive

###

assay: qHTS assay for identifying genotoxic compounds that show differential cytotoxicity against isogenic chicken DT40 cell lines with known DNA damage response pathways - Rad54/Ku70 mutant cell line (AID 743015); conditions: DT40 Rad54/Ku70 mutant viability, CellTiter-Glo, 40 h; series mostly up to 66.8 µM; further: nearly all actives have a fitted effect of over 60% in size
Inconclusive results are not listed. Activity calls are given as the source filed them. Calls follow the shape of the dose curve; as a rule, active = well fitted cell-killing curve with a large enough effect in the repeat runs; inconclusive = weak or mixed curves; inactive = no such curve, though single readings can be large or run the other way.
Classes to choose from: active, inactive

query: Please let me know the test result on file for "Cc1cccc(C)c1NC(=O)CC12CCCN1CCC2" .
result: inactive

query: Try the molecule CC(C#N)(CCC(=O)O)N=NC(C)(C#N)CCC(=O)O (stereo not drawn)
result: inactive

query: Follow-up entry: "O=S(=O)(O)c1cccc(S(=O)(=O)O)c1"
result: inactive

###

biological target: Luciferin 4-monooxygenase (Photinus pyralis); test: qHTS assay to identify small molecule inhibitors of firefly luciferase (AID 1224835); further: nearly all actives have a fitted effect of over 25% in size; settings: purified P. pyralis luciferase, luminescence inhibition; series mostly up to 115 µM
Results filed as inconclusive are left out. Active and inactive are the calls of the source. Calls follow the shape of the dose curve; as a rule, active = well fitted inhibition curve with a large enough effect in the repeat runs; inconclusive = weak or mixed curves; inactive = flat fitted curve, though single readings scatter.
MEASUREMENT_TYPE: activity change, negative = inhibition

Take a look at these entries with their results.
| MOLECULE | activity change, negative = inhibition |
| --- | --- |
| NC(=O)Cc1cccc2ccccc12 | inactive |
| CCOC(=O)OC(C)OC1=C(C(=O)Nc2ccccn2)N(C)S(=O)(=O)c2ccccc21 (stereo not drawn) | inactive |
| O=Cc1cccc(Br)c1 | inactive |
| CC(CC=O)CC(C)(C)C (stereo not drawn) | inactive |
| CCOCC(C)O (stereo not drawn) | inactive |
| Clc1cc(Cl)c(Cl)nc1Cl | inactive |
| Cc1coc2ccccc2c1=O | inactive |

query: Given the molecule "CCN(C=O)CC" , what is its reported activity change, negative = inhibition?
result: inactive

###

assay: qHTS assay to test for compound auto fluorescence at 590 nm (red) in HepG2 cells (AID 720674); details: HepG2 autofluorescence, red 540/590 nm, 1 h; series mostly up to 91.3 µM
Active and inactive are the calls of the source. The call rests on the fitted dose curve; in most records, active means well fitted curve in the direction sought with a large enough effect in the repeat runs; inconclusive means weak or mixed curves; inactive means flat fitted curve, though single readings scatter.
MEASUREMENT_TYPE: fluorescence, relative to Rose Bengal

| COMPOUND_STRING | VALUE_MEASURED |
| --- | --- |
| CC1(C)[C@@H]2CC[C@@]1(C)[C@H](O)C2 | inactive |
| CC[C@H]1OC(=O)[C@H](C)[C@@H](O[C@H]2C[C@@](C)(OC)[C@@H](O)[C@H](C)O2)[C@H](C)[C@@H](O[C@@H]2O[C@H](C)C[C@H](N(C)C)[C@H]2O)[C@](C)(OC)C[C@@H](C)C(=O)[C@H](C)[C@@H](O)[C@]1(C)O | inactive |
| CC(C)(N)C#N | inactive |
